The values you see were collected from patent US6645918B1.

// reported ALOMY postemergence injury score 0-100 for each item listed
System: blackgrass (Alopecurus myosuroides)
test_name: Postemergence herbicidal activity, blackgrass
Assay type: in vivo
assay_conditions: 31.3 ppm, foliar spray, visual after 2 weeks; 0 no injury, 100 complete kill

# structure_smiles_string, ALOMY postemergence injury score 0-100 (%)
data = [
    ("COc1cscc1S(=O)(=O)Nc1nc2c(C)cnc(OC)n2n1", 70),
    ("COc1csc(C)c1S(=O)(=O)Nc1nc2c(Cl)cnc(OC)n2n1", 60),
    ("COc1csc(Cl)c1S(=O)(=O)Nc1nc2c(Cl)cnc(OC)n2n1", 30),
    ("COc1cscc1S(=O)(=O)Nc1nc2c(Cl)cnc(OC)n2n1", 80),
]

====

System: giant foxtail (Setaria faberi)
test_name: Preemergence herbicidal activity, giant foxtail
Format: in vivo
assay_conditions: 8.8 g/Ha, soil spray, visual after 3 weeks; 0 no injury, 100 complete kill or no germination

# structure_smiles_string, SETFA preemergence injury score 0-100
data = [
    ("COc1sccc1S(=O)(=O)Nc1nc2c(OC)cnc(OC)n2n1", "60%"),
    ("COc1csc(Cl)c1S(=O)(=O)Nc1nc2c(C)cnc(OC)n2n1", "70%"),
    ("CCOc1cscc1S(=O)(=O)Nc1nc2nc(OC)cc(OC)n2n1", "100%"),
    ("COc1ccsc1S(=O)(=O)Nc1nc2c(Cl)cnc(OC)n2n1", "100%"),
    ("COc1cc(OC)n2nc(NS(=O)(=O)c3c(OC)csc3C)nc2n1", "100%"),
    ("COc1cc(OC)n2nc(NS(=O)(=O)c3c(OC)csc3Cl)nc2n1", "100%"),
    ("COc1csc(C(F)(F)F)c1S(=O)(=O)Nc1nc2c(OC)cnc(OC)n2n1", "90%"),
    ("COc1cc(OC)n2nc(NS(=O)(=O)c3cscc3OC)nc2n1", "100%"),
]

====

System: blackgrass (Alopecurus myosuroides)
test_name: Postemergence herbicidal activity, blackgrass
Format: in vivo
assay_conditions: 15.6 ppm, foliar spray, visual after 2 weeks; 0 no injury, 100 complete kill
ALOMY postemergence injury score 0-100: recorded values

# structure_smiles_string, unit_string, ALOMY postemergence injury score 0-100
records = [
    ("CCOc1cscc1S(=O)(=O)Nc1nc2c(OC)ccc(OC)n2n1", "%", 75),
    ("COc1cscc1S(=O)(=O)Nc1nc2c(OC)ccc(OC)n2n1", "%", 85),
    ("COc1csc(C(F)(F)F)c1S(=O)(=O)Nc1nc2c(OC)cnc(OC)n2n1", "%", 50),
    ("CCOc1cscc1S(=O)(=O)Nc1nc2nc(OC)cc(OC)n2n1", "%", 60),
    ("COc1csc(Cl)c1S(=O)(=O)Nc1nc2c(OC)cnc(OC)n2n1", "%", 70),
    ("COc1cc(OC)n2nc(NS(=O)(=O)c3c(OC)csc3Cl)nc2n1", "%", 70),
    ("COc1cc(OC)n2nc(NS(=O)(=O)c3sc(Cl)cc3OC)nc2n1", "%", 70),
    ("COc1cc(OC)n2nc(NS(=O)(=O)c3cscc3OC)nc2n1", "%", 80),
    ("COc1csc(C)c1S(=O)(=O)Nc1nc2c(OC)cnc(OC)n2n1", "%", 70),
]

====

System: blackgrass (Alopecurus myosuroides)
test_name: Preemergence herbicidal activity, blackgrass
Format: in vivo
assay_conditions: 8.8 g/Ha, soil spray, visual after 3 weeks; 0 no injury, 100 complete kill or no germination
measurement_name: ALOMY preemergence injury score 0-100

# compound, target_or_test_system, measurement_name, result_value
data = [
    ("COc1cc(OC)n2nc(NS(=O)(=O)c3c(OC)csc3Cl)nc2n1 [Compound 19]", "blackgrass (Alopecurus myosuroides)", "ALOMY preemergence injury score 0-100", "95%"),
    ("COc1cc(OC)n2nc(NS(=O)(=O)c3cscc3OC)nc2n1 [Compound 15]", "blackgrass (Alopecurus myosuroides)", "ALOMY preemergence injury score 0-100", "100%"),
    ("COc1sccc1S(=O)(=O)Nc1nc2c(OC)cnc(OC)n2n1 [Compound 8]", "blackgrass (Alopecurus myosuroides)", "ALOMY preemergence injury score 0-100", "85%"),
    ("CCOc1cscc1S(=O)(=O)Nc1nc2nc(OC)cc(OC)n2n1 [Compound 12]", "blackgrass (Alopecurus myosuroides)", "ALOMY preemergence injury score 0-100", "100%"),
    ("COc1ccsc1S(=O)(=O)Nc1nc2c(Cl)cnc(OC)n2n1 [Compound 2]", "blackgrass (Alopecurus myosuroides)", "ALOMY preemergence injury score 0-100", "95%"),
    ("COc1csc(Cl)c1S(=O)(=O)Nc1nc2c(C)cnc(OC)n2n1 [Compound 21]", "blackgrass (Alopecurus myosuroides)", "ALOMY preemergence injury score 0-100", "70%"),
    ("COc1csc(C(F)(F)F)c1S(=O)(=O)Nc1nc2c(OC)cnc(OC)n2n1 [Compound 10]", "blackgrass (Alopecurus myosuroides)", "ALOMY preemergence injury score 0-100", "90%"),
    ("COc1cc(OC)n2nc(NS(=O)(=O)c3c(OC)csc3C)nc2n1 [Compound 24]", "blackgrass (Alopecurus myosuroides)", "ALOMY preemergence injury score 0-100", "90%"),
]

====

XANST preemergence injury score 0-100 by entry:
Test system: cocklebur (Xanthium strumarium)
test_name: Preemergence herbicidal activity, cocklebur
Assay type: in vivo
assay_conditions: 4.4 g/Ha, soil spray, visual after 3 weeks; 0 no injury, 100 complete kill or no germination

# compound, unit_string, XANST preemergence injury score 0-100
measured = [
    ("CCOc1cscc1S(=O)(=O)Nc1nc2c(OC)ccc(OC)n2n1 [Compound 11]", "%", 50),
    ("COc1csc(C)c1S(=O)(=O)Nc1nc2c(OC)cnc(OC)n2n1 [Compound 23]", "%", 70),
    ("COc1cscc1S(=O)(=O)Nc1nc2c(OC)cnc(OC)n2n1 [Compound 7]", "%", 80),
    ("CCOc1cscc1S(=O)(=O)Nc1nc2c(OC)cnc(OC)n2n1 [Compound 13]", "%", 80),
    ("COc1csc(Cl)c1S(=O)(=O)Nc1nc2c(OC)cnc(OC)n2n1 [Compound 18]", "%", 90),
]

====

System: Rox orange sorghum (Sorghum bicolor)
test_name: Preemergence herbicidal activity, Rox orange sorghum
Format: in vivo
assay_conditions: 8.8 g/Ha, soil spray, visual after 3 weeks; 0 no injury, 100 complete kill or no germination

# structure_smiles_string, SORBI preemergence injury score 0-100 / %
records = [
    ("COc1ccsc1S(=O)(=O)Nc1nc2c(Cl)cnc(OC)n2n1", 100),
    ("COc1cc(OC)n2nc(NS(=O)(=O)c3c(OC)csc3Cl)nc2n1", 95),
    ("CCOc1cscc1S(=O)(=O)Nc1nc2nc(OC)cc(OC)n2n1", 100),
    ("COc1cc(OC)n2nc(NS(=O)(=O)c3c(OC)csc3C)nc2n1", 100),
    ("COc1csc(Cl)c1S(=O)(=O)Nc1nc2c(C)cnc(OC)n2n1", 70),
    ("COc1cc(OC)n2nc(NS(=O)(=O)c3cscc3OC)nc2n1", 100),
    ("COc1csc(C(F)(F)F)c1S(=O)(=O)Nc1nc2c(OC)cnc(OC)n2n1", 100),
    ("COc1sccc1S(=O)(=O)Nc1nc2c(OC)cnc(OC)n2n1", 70),
]

====

System: morningglory (Ipomoea hederacea)
test_name: Postemergence herbicidal activity, morningglory
Assay type: in vivo
assay_conditions: 15.6 ppm, foliar spray, visual after 2 weeks; 0 no injury, 100 complete kill
Procedure: Seeds of the desired test plant species were planted in Grace-Sierra MetroMix® 306 planting mixture, which typically has a pH of 6.0 to 6.8 and an organic matter content of about 30 percent, in plastic pots with a surface area of 64 square centimeters. […] After 2 weeks the condition of the test plants as compared with that of the untreated plants was determined visually and scored on a scale of 0 to 100 percent where 0 corresponds to no injury and 100 corresponds to complete kill.

# compound, IPOHE postemergence injury score 0-100, %
data = [
    ("COc1csc(C)c1S(=O)(=O)Nc1nc2c(OC)cnc(OC)n2n1 [Compound 23]", 40),
    ("COc1cc(OC)n2nc(NS(=O)(=O)c3c(OC)csc3Cl)nc2n1 [Compound 19]", 80),
    ("COc1cc(OC)n2nc(NS(=O)(=O)c3cscc3OC)nc2n1 [Compound 15]", 70),
    ("COc1cc(OC)n2nc(NS(=O)(=O)c3sc(Cl)cc3OC)nc2n1 [Compound 4]", 60),
    ("COc1csc(C(F)(F)F)c1S(=O)(=O)Nc1nc2c(OC)cnc(OC)n2n1 [Compound 10]", 80),
    ("CCOc1cscc1S(=O)(=O)Nc1nc2c(OC)ccc(OC)n2n1 [Compound 11]", 70),
    ("COc1csc(Cl)c1S(=O)(=O)Nc1nc2c(OC)cnc(OC)n2n1 [Compound 18]", 75),
    ("COc1cscc1S(=O)(=O)Nc1nc2c(OC)ccc(OC)n2n1 [Compound 16]", 60),
    ("CCOc1cscc1S(=O)(=O)Nc1nc2nc(OC)cc(OC)n2n1 [Compound 12]", 95),
]
